- Tested on: K562
- assay_method_text: NCI tumour cell line growth inhibition, 48 h
Activity calls are given as the source filed them. Rule as the data show it: active = GI50 up to about 1.1 µM and inactive = higher. Starred links: 1 amine or outer side, 2 acyl side, 3 side chain; linkers in the order of their positions; H or OH if unused. Positions of bridges follow the written chain, without caps; N, C: chain ends. Non-standard residues stand in square brackets, D forms with d. Residues, ends and D or L forms follow the SMILES beside them. Chains are numbered I, II in the order given. Actinocin(1to9) = Cc1c2oc3c(C)ccc(C(=O)[*:2])c3nc-2c(C(=O)[*:1])c(N)c1=O; NMeV = CN[CH](C(=O)O)C(C)C; Sar = CNCC(=O)O
Assign a class; possible classes are TRUE (active), FALSE (inactive)

Please share the test call associated with COC(=O)C1=Cc2cn(S(=O)(=O)c3ccc(C)cc3)c3cccc(c23)C(C=C(C)C)N1C(C)=O (configuration not stated) .
FALSE

Please share the test call associated with `Cc1ccc(-c2cs/c(=N\c3c(C)n(C)n(-c4ccccc4)c3=O)n2CCO)cc1` .
FALSE

Please share the test call associated with CC(C)N(C(=O)C12C3C4C1C1C4(C#N)C3C12C#N)C(C)C (configuration not stated) .
FALSE

Please share the test call associated with `CCOC(=O)c1ccc(Nc2cnc3ccc(C(F)(F)F)cc3n2)cc1` .
FALSE

Please share the test call associated with `CCn1c2ccccc2c2ccc3c(c21)C(=O)C=CC3=O` .
FALSE

Please share the test call associated with Nc1nc2c(ncn2CC2CCC(CO)C2)c(=O)[nH]1 (configuration not stated) .
FALSE

Please share the test call associated with `COc1ccc(OC)c2c1CC(C(=O)O)(C(=O)O)CC2=O` .
FALSE

Please share the test call associated with CCC(C)C1NC(=O)C(NC(=O)c2c3nc4c(C(=O)NC5C(=O)NC(C(C)CC)C(=O)N6CCCC6C(=O)N(C)CC(=O)N(C)C(C(C)C)C(=O)OC5C)ccc(C)c4oc-3c(C)c(=O)c2N)C(C)OC(=O)C(C(C)C)N(C)C(=O)CN(C)C(=O)C2CCCN2C1=O (configuration not stated) (I: TIP[Sar][NMeV] / II: TIP[Sar][NMeV]; ester I:1-I:C, II:1-II:C; linker I:N-II:N via Actinocin(1to9); configuration not given here) .
TRUE

Please share the test call associated with `CCOC(=O)/C(C(=O)c1ccccc1)=C1/NCCN1C` .
FALSE

Please share the test call associated with CC1(C)OP(=O)(c2ccccc2)C=C1Br (configuration not stated) .
FALSE

Please share the test call associated with `C/C(=C\c1csc(C)n1)[C@@H]1C[C@@H]2O[C@@H]2CCC[C@H](C)[C@H](O)[C@@H](C)C(=O)C(C)(C)[C@@H](O)CC(=O)O1` .
TRUE

Please share the test call associated with `CC(C)(C)OC(=O)N(CCCN)CCCCN(CCCN)C(=O)OC(C)(C)C` .
FALSE

Please share the test call associated with `O=S1(=O)NN=C(NCc2ccc(Cl)cc2)c2ccccc21` .
FALSE

Please share the test call associated with `O=[N+]([O-])/C(C(Cl)=C(Cl)Cl)=C(/Cl)Sc1ccccc1` .
TRUE

Please share the test call associated with `O=C1CC(=O)NC(NN2C(=O)/C(=C/c3ccccc3)N=C2c2ccccc2)=N1` .
FALSE

Please share the test call associated with `O=Cc1c(O)ccc2ccc(O)c(-c3c(O)ccc4ccc(O)cc34)c12` .
FALSE

Please share the test call associated with CC[C@@]1(O)C(=O)OCc2c1cc1n(c2=O)Cc2c-1nc1ccccc1c2/C=N\NC(=O)C(N)CCSC (some centres not stated) .
TRUE
